Entries and their pIC50
test.target: CRBN (Homo sapiens, UniProt Q96SW2)
Construct: Quantitative assessment of intracellular CRBN engagement; endogenous in cells; host or cells: Flp293T-based BRD4BD2-GFP mCherry reporter cell line
assay.comment: Competitive displacement assay for cellular CRBN engagement (rescue of dBET6-mediated BRD4BD2-eGFP degradation, mCherry reporter cells)
Format: cell-based
applied.conditions: IC50, intracellular CRBN engagement (rescue of 50% of BRD4BRD2-eGFP fluorescence), Supplementary Figures S3 and S6; 100 nM dBET6; n=2 biological replicates
pIC50: −log10 of the molar value.
outcome.measure: pIC50

- CC[C@H](C)[C@@H]([C@@H](CC(=O)N1CCC[C@H]1[C@H](OC)[C@@H](C)C(=O)N[C@H](C)[C@@H](O)c1ccccc1)OC)N(C)C(=O)[C@@H](NC(=O)[C@H](C(C)C)N(C)CCOCCOCCOCCOCCOCCNc1cccc2c1C(=O)N(C1CCC(=O)NC1=O)C2=O)C(C)C (stereo partly drawn): 6.36
- COc1ccc(/C=C\c2cc(OC)c(OC)c(OC)c2)cc1OCCOCCOCCOCCOCCOCCNc1cccc2c1C(=O)N(C1CCC(=O)NC1=O)C2=O (stereo not drawn): 6.18
- COc1ccc(/C=C\c2cc(OC)c(OC)c(OC)c2)cc1OCCOCCOCCOCCNc1cccc2c1C(=O)N(C1CCC(=O)NC1=O)C2=O (stereo not drawn): 5.83
- COc1ccc(/C=C\c2cc(OC)c(OC)c(OC)c2)cc1OCCOCCOCCOCCOCCNc1cccc2c1C(=O)N(C1CCC(=O)NC1=O)C2=O (stereo not drawn): 6.24
- CC[C@H](C)[C@@H]([C@@H](CC(=O)N1CCC[C@H]1[C@H](OC)[C@@H](C)C(=O)N[C@H](C)[C@@H](O)c1ccccc1)OC)N(C)C(=O)[C@@H](NC(=O)[C@H](C(C)C)N(C)CCOCCOCCOCCNc1cccc2c1C(=O)N(C1CCC(=O)NC1=O)C2=O)C(C)C (stereo partly drawn): 6.33
- CC[C@H](C)[C@@H]([C@@H](CC(=O)N1CCC[C@H]1[C@H](OC)[C@@H](C)C(=O)N[C@H](C)[C@@H](O)c1ccccc1)OC)N(C)C(=O)[C@@H](NC(=O)[C@H](C(C)C)N(C)CCOCCOCCOCCOCCNc1cccc2c1C(=O)N(C1CCC(=O)NC1=O)C2=O)C(C)C (stereo partly drawn): 6.47

---

test.target: CRBN (Homo sapiens, UniProt Q96SW2)
Construct: Quantitative assessment of intracellular CRBN engagement; endogenous in cells; host or cells: Flp293T-based BRD4BD2-GFP mCherry reporter cell line
assay.comment: Competitive displacement assay for cellular CRBN engagement (rescue of dBET6-mediated BRD4BD2-eGFP degradation, mCherry reporter cells)
Type: cell-based
applied.conditions: Supplementary Figures S3 and S6; 100 nM dBET6; n=2 biological replicates; read-out: IC50, intracellular CRBN engagement (rescue of 50% of BRD4BRD2-eGFP fluorescence)
pIC50: −log10 of the molar value.
outcome.measure: pIC50

• COc1ccc(/C=C\c2cc(OC)c(OC)c(OC)c2)cc1NCCOCCOCCOCCOCCNc1cccc2c1C(=O)N(C1CCC(=O)NC1=O)C2=O (stereo not shown) [Compound 13] = 5.43

---

test.target: CRBN (Homo sapiens, UniProt Q96SW2)
Construct: Quantitative assessment of intracellular CRBN engagement; endogenous in cells; host or cells: Flp293T-based BRD4BD2-GFP mCherry reporter cell line
assay.comment: Competitive displacement assay for cellular CRBN engagement (rescue of dBET6-mediated BRD4BD2-eGFP degradation, mCherry reporter cells)
Type: cell-based
outcome.measure: cell permeability as judged by the cellular CRBN engagement assay

- COc1ccc(/C=C\c2cc(OC)c(OC)c(OC)c2)cc1OCCOCCOCCOCCOCCOCCNc1cccc2c1C(=O)N(C1CCC(=O)NC1=O)C2=O (stereo not shown) [Compound 12]: cell permeable
- COc1ccc(/C=C\c2cc(OC)c(OC)c(OC)c2)cc1OCCOCCOCCOCCOCCNc1cccc2c1C(=O)N(C1CCC(=O)NC1=O)C2=O (stereo not shown) [Compound 11]: cell permeable
- COc1ccc(/C=C\c2cc(OC)c(OC)c(OC)c2)cc1OCCOCCOCCOCCNc1cccc2c1C(=O)N(C1CCC(=O)NC1=O)C2=O (stereo not shown) [Compound 10]: cell permeable
